test system: 485368-065-R4-J2-PDC spheroids with HUVEC/MSC, viability; assay: Anticancer human tumor 485368-065-R4-J2-PDC patient-derived pancreatic carcinoma cell line growth inhibition [CLK]; settings: second compound 3.16 µM; first compound 0.316 µM; stronger effect = lower value
Response field label takes Met when viability, T/C is strictly below 3% and Not met in all other cases.

These recorded examples may help you get a feel for the data.
>>> category("CCCS(=O)(=O)Nc1ccc(F)c(C(=O)c2c[nH]c3ncc(-c4ccc(Cl)cc4)cc23)c1F + CN1CCN(c2cc(C(=O)Nc3cc4cc(-c5cnn(C)c5)ccc4cn3)ccn2)CC1")
"Met"
>>> category("COc1c(OCCCN2CCOCC2)ccc2c3n(c(=NC(=O)c4cnc(N)nc4)nc12)CCN3 + CN1CCN(c2cc(C(=O)Nc3cc4cc(-c5cnn(C)c5)ccc4cn3)ccn2)CC1")
"Met"
>>> category("C#Cc1c(F)ccc2cc(O)cc(-c3ncc4c(N5CC6CCC(C5)N6)nc(OCC56CCCN5CC(F)C6)nc4c3F)c12 (stereo unspecified) + CN1CCN(c2cc(C(=O)Nc3cc4cc(-c5cnn(C)c5)ccc4cn3)ccn2)CC1")
"Met"
>>> category("COc1ccc([C@@H](O)c2cc(-c3ncnc4cc(N5CCOCC5)ccc34)c(F)cc2Cl)nn1 + CN1CCN(c2cc(C(=O)Nc3cc4cc(-c5cnn(C)c5)ccc4cn3)ccn2)CC1")
"Met"
>>> category("Nc1ccn(C2OC(CO)C(O)C2(F)F)c(=O)n1 (stereo unspecified) + CN1CCN(c2cc(C(=O)Nc3cc4cc(-c5cnn(C)c5)ccc4cn3)ccn2)CC1")
"Met"

Q: Take the compound CC(Nc1ccc2c(c1)OCCn1cc(N3C(=O)OCC3C(F)F)nc1-2)C(N)=O (stereo unspecified) + CN1CCN(c2cc(C(=O)Nc3cc4cc(-c5cnn(C)c5)ccc4cn3)ccn2)CC1 and say whether its viability, T/C is less than 3%.
A: Not met

###

Reported viability, T/C values follow for various compounds
system: 485368-065-R4-J2-PDC spheroids with HUVEC/MSC, viability; assay: Anticancer human tumor 485368-065-R4-J2-PDC cell line growth inhibition [CLK]; settings: second compound 0.1 µM; first compound 10 µM; stronger effect = lower value
Quick reminder: number only, in %, skip the unit.

The following compounds have reported results that may help.
>>> reported("COC1C=CCC(C)C(C)S(=O)(=O)NC(=O)c2ccc3c(c2)N(CC2CCC21)CC1(CCCc2cc(Cl)ccc21)CO3 (stereo not given) + CN1CCN(c2cc(C(=O)Nc3cc4cc(-c5cnn(C)c5)ccc4cn3)ccn2)CC1")
90.8
>>> reported("O=C(c1cc(Cc2n[nH]c(=O)c3ccccc23)ccc1F)N1CCN(C(=O)C2CC2)CC1 + CN1CCN(c2cc(C(=O)Nc3cc4cc(-c5cnn(C)c5)ccc4cn3)ccn2)CC1")
76
>>> reported("O=c1[nH]cc(F)c(=O)[nH]1 + CN1CCN(c2cc(C(=O)Nc3cc4cc(-c5cnn(C)c5)ccc4cn3)ccn2)CC1")
81.8
>>> reported("C#Cc1c(F)ccc2cc(O)cc(-c3ncc4c(N5CC6CCC(C5)N6)nc(OCC56CCCN5CC(F)C6)nc4c3F)c12 (stereo not given) + CNC(=O)c1ccc(Nc2nc(OC3CCCC3)c3c(-c4ccc5nc(C)oc5c4)c[nH]c3n2)c(OC)c1")
108

Now look at this one.
Q: Notebook: pull reported viability, T/C for 485368-065-R4-J2-PDC spheroids with HUVEC/MSC, viability, entry CC1COCCN1c1cc(C2(S(C)(=N)=O)CC2)nc(-c2ccnc3[nH]ccc23)n1 (stereo not given) + CNC(=O)c1ccc(Nc2nc(OC3CCCC3)c3c(-c4ccc5nc(C)oc5c4)c[nH]c3n2)c(OC)c1
A: 97.4

###

system: 485368-065-R4-J2-PDC spheroids with HUVEC/MSC, viability; assay: Anticancer human tumor 485368-065-R4-J2-PDC cell line growth inhibition [CLK]; settings: second compound 10 µM; first compound 0.1 µM; active = viability on the fitted dose curve at most 10% of control; inactive = the rest;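 further: spheroids exposed to compounds for seven days; 100% = DMSO vehicle control wells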
A correct response names exactly one class from t = active, f = inactive

>>> category("O=c1[nH]cc(F)c(=O)[nH]1 + CNC(=O)c1ccc(Nc2nc(OC3CCCC3)c3c(-c4ccc5nc(C)oc5c4)c[nH]c3n2)c(OC)c1")
"f"
>>> category("Nc1ccccc1NC(=O)c1ccc(CNC(=O)OCc2cccnc2)cc1 + CN1CCN(c2cc(C(=O)Nc3cc4cc(-c5cnn(C)c5)ccc4cn3)ccn2)CC1")
"t"
>>> category("C=C(F)C(=O)N1CCN(c2nc(OCC3CCCN3C)nc3c2CCN(c2cccc4cccc(Cl)c24)C3)CC1CC#N (stereo unspecified) + CNC(=O)c1ccc(Nc2nc(OC3CCCC3)c3c(-c4ccc5nc(C)oc5c4)c[nH]c3n2)c(OC)c1")
"f"

Q: Hi, sorry to bother you, what did the test record for C#Cc1c(F)ccc2cc(O)cc(-c3ncc4c(N5CC6CCC(C5)N6)nc(OCC56CCCN5CC(F)C6)nc4c3F)c12 (stereo unspecified) + CN1CCN(c2cc(C(=O)Nc3cc4cc(-c5cnn(C)c5)ccc4cn3)ccn2)CC1 ?
A: t

Q: Hi, sorry to bother you, what did the test record for C#Cc1c(F)ccc2cc(O)cc(-c3ncc4c(N5CC6CCC(C5)N6)nc(OCC56CCCN5CC(F)C6)nc4c3F)c12 (stereo unspecified) + CNC(=O)c1ccc(Nc2nc(OC3CCCC3)c3c(-c4ccc5nc(C)oc5c4)c[nH]c3n2)c(OC)c1 ?
A: f

###

tested on: 485368-065-R4-J2-PDC spheroids with HUVEC/MSC, viability; experiment: Anticancer human tumor 485368-065-R4-J2-PDC cell line growth inhibition [CLK]; settings: second compound 0.1 µM; first compound 0.0316 µM; stronger effect = lower value;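 further: spheroids exposed to compounds for seven days; 100% = DMSO vehicle control wells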
parameter: viability, T/C (%)
Quick reminder: number only, in %, skip the unit.

The following compounds have reported results that may help.
>>> reported("CC1COCCN1c1cc(C2(S(C)(=N)=O)CC2)nc(-c2ccnc3[nH]ccc23)n1 (stereo not drawn) + CNC(=O)c1ccc(Nc2nc(OC3CCCC3)c3c(-c4ccc5nc(C)oc5c4)c[nH]c3n2)c(OC)c1")
91.1
>>> reported("COc1c(OCCCN2CCOCC2)ccc2c3n(c(=NC(=O)c4cnc(N)nc4)nc12)CCN3 + CN1CCN(c2cc(C(=O)Nc3cc4cc(-c5cnn(C)c5)ccc4cn3)ccn2)CC1")
82.7

Now look at this one.
Q: Any idea what viability, T/C was measured for O=C(c1cc(Cc2n[nH]c(=O)c3ccccc23)ccc1F)N1CCN(C(=O)C2CC2)CC1 + CN1CCN(c2cc(C(=O)Nc3cc4cc(-c5cnn(C)c5)ccc4cn3)ccn2)CC1 ?
A: 107

###

tested on: 485368-065-R4-J2-PDC spheroids with HUVEC/MSC, viability; experiment: Anticancer human tumor 485368-065-R4-J2-PDC cell line growth inhibition [CLK]; conditions: second compound 10 µM; first compound 10 µM; stronger effect = lower value;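 further: spheroids exposed to compounds for seven days; 100% = DMSO vehicle control wells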
Response field label takes true when viability, T/C is strictly below 30% and false in all other cases.

These recorded examples may help you get a feel for the data.
>>> category("C#Cc1c(F)ccc2cc(O)cc(-c3ncc4c(N5CC6CCC(C5)N6)nc(OCC56CCCN5CC(F)C6)nc4c3F)c12 (stereo not given) + CNC(=O)c1ccc(Nc2nc(OC3CCCC3)c3c(-c4ccc5nc(C)oc5c4)c[nH]c3n2)c(OC)c1")
"false"
>>> category("Nc1ccccc1NC(=O)c1ccc(CNC(=O)OCc2cccnc2)cc1 + CN1CCN(c2cc(C(=O)Nc3cc4cc(-c5cnn(C)c5)ccc4cn3)ccn2)CC1")
"true"
>>> category("CC(Nc1ccc2c(c1)OCCn1cc(N3C(=O)OCC3C(F)F)nc1-2)C(N)=O (stereo not given) + CNC(=O)c1ccc(Nc2nc(OC3CCCC3)c3c(-c4ccc5nc(C)oc5c4)c[nH]c3n2)c(OC)c1")
"false"
>>> category("CCCS(=O)(=O)Nc1ccc(F)c(C(=O)c2c[nH]c3ncc(-c4ccc(Cl)cc4)cc23)c1F + CNC(=O)c1ccc(Nc2nc(OC3CCCC3)c3c(-c4ccc5nc(C)oc5c4)c[nH]c3n2)c(OC)c1")
"false"

# ---- query molecule ----
Q: Take the molecule COc1cccc2c1C(=O)c1c(O)c3c(c(O)c1C2=O)CC(O)(C(=O)CO)CC3OC1CC(N)C(O)C(C)O1 (stereo not given) + CN1CCN(c2cc(C(=O)Nc3cc4cc(-c5cnn(C)c5)ccc4cn3)ccn2)CC1 and say whether its viability, T/C is less than 30%.
A: true

###

system: 485368-065-R4-J2-PDC spheroids with HUVEC/MSC, viability; experiment: Anticancer human tumor 485368-065-R4-J2-PDC cell line growth inhibition [CLK]; conditions: second compound 0.0316 µM; first compound 0.0316 µM; stronger effect = lower value;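 further: spheroids exposed to compounds for seven days; 100% = DMSO vehicle control wells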
parameter: viability, T/C

The following molecules have reported results that may help.
>>> reported("COc1cccc2c1C(=O)c1c(O)c3c(c(O)c1C2=O)CC(O)(C(=O)CO)CC3OC1CC(N)C(O)C(C)O1 (stereo not given) + CN1CCN(c2cc(C(=O)Nc3cc4cc(-c5cnn(C)c5)ccc4cn3)ccn2)CC1")
"97.5%"
>>> reported("COc1ccc([C@@H](O)c2cc(-c3ncnc4cc(N5CCOCC5)ccc34)c(F)cc2Cl)nn1 + CNC(=O)c1ccc(Nc2nc(OC3CCCC3)c3c(-c4ccc5nc(C)oc5c4)c[nH]c3n2)c(OC)c1")
"84.1%"
>>> reported("Nc1ccn(C2OC(CO)C(O)C2(F)F)c(=O)n1 (stereo not given) + CNC(=O)c1ccc(Nc2nc(OC3CCCC3)c3c(-c4ccc5nc(C)oc5c4)c[nH]c3n2)c(OC)c1")
"66.8%"
>>> reported("CC(CO)NC(=O)c1cc(-c2ccc(Cl)cc2)nn(-c2cnn(C)c2)c1=O (stereo not given) + CNC(=O)c1ccc(Nc2nc(OC3CCCC3)c3c(-c4ccc5nc(C)oc5c4)c[nH]c3n2)c(OC)c1")
"87.9%"

Q: Any idea what viability, T/C was measured for Nc1ccccc1NC(=O)c1ccc(CNC(=O)OCc2cccnc2)cc1 + CNC(=O)c1ccc(Nc2nc(OC3CCCC3)c3c(-c4ccc5nc(C)oc5c4)c[nH]c3n2)c(OC)c1 ?
A: 89.6%
